# measurementNotes: folding stability dG unfold (combined trypsin and chymotrypsin); higher = more stable
So basically: folding stability dG unfold at 2 kcal/mol or higher? That is Met. Lower than 2 kcal/mol? That is Not met.

# count of solved cases: 10
>  <residueSequence>
SAGGSAGGSMTRTITLSKEELKKKYPNATLEEIAKDIIEKEPGVKEVTVEEFPGTVKITVTKLSAGGSAGGS [r12_590_JUSTAS]

>  <className>
Met

$$$$
>  <residueSequence>
SAAAENGEITISVEVELDPETNTLTIKRVEITVNGKLIATATLTITLPPPPPEPEETVYVHPDDPEALKSAG [r14_571_TrROS_Hall]

>  <className>
Not met

$$$$
>  <residueSequence>
SAGGSAKRKVEIEIVLSAEELEEAIKEGKPLSEELQKRIEELLKKAEEAGIDEVRIRIVPPGLPEPSAGGSA [r15_304_TrROS_Hall]

>  <className>
Not met

$$$$
>  <residueSequence>
SAGGSAGGSAGMLSVTELSTEEKGSLVTTTTRATVGSTTVTTTTTTFVPRSTALLNPDRGSAGGSAGGSAGG [r11_213_JUSTAS]

>  <className>
Not met

$$$$
>  <residueSequence>
SAMVYPYLLRVYLPGSGEVVYFPASSLEEAVELLEEVAALPNVNSVDLYTPDGTKVHFLIDVPPEAFEESAG [r14_747_TrMRF]

>  <className>
Met

$$$$
>  <residueSequence>
SAGGSAGGSAGGSSSSSITTEERPVDEDSVEKTFKFPDYYVVETLDPRTGRTSVSFIPVSAGGSAGGSAGGS [r4_99_JUSTAS]

>  <className>
Not met

$$$$
>  <residueSequence>
SAGGSAGGSAGMPPPVVVEPKRTSVVPESGLVIIPVTVFNPANGKATLTTYLYDPATGKLVLSAGGSAGGSA [r18_228_JUSTAS]

>  <className>
Not met

$$$$
>  <residueSequence>
SNWITLKHTIKHPGREIKIEITAQPNPGGPYWIQVNIEVRDPNGEKEEVEITVPFRGMSIEDFLKNAADASA [r9_217_TrROS]

>  <className>
Met

$$$$
>  <residueSequence>
SAGGSAGGSAMVILTPDGYLKVIKSITVEEALDPETDEPVLDVKAEVEVIPLPSLDDPAFKESAGGSAGGSA [r18_6_TrMRF]

>  <className>
Not met

$$$$
>  <residueSequence>
SAGGSAGGSAGGGKLAIRVEIEPVRTETRLRADGSLETRTEFRVRIEIRPVGNPDDPRNNSAGGSAGGSAGG [r7_523_TrMRF]

>  <className>
Met

$$$$

Task: Is reported folding stability dG unfold greater than or equal to 2 kcal/mol here: SAGGMKAEIVNPNLSPEELKELILKAPEAKDVDIEVKKTSAKGAVSAKITTKSEKEAETIKKAVEEAVSAGG [r13_580_JUSTAS]
Output: Not met

Task: Is reported folding stability dG unfold greater than or equal to 2 kcal/mol here: SAGKKTIIIKIPPNMTVEELKKALKNLKPNEKVTITVNGKKYTITVKDGKIKITFPENVKNMILIIEVKSAG [r5_373_TrROS_Hall]
Output: Met

* * *

# measurementNotes: folding stability dG unfold from chymotrypsin proteolysis; higher = more stable
So basically: folding stability dG unfold at 4 kJ/mol or higher? That is Yes. Lower than 4 kJ/mol? That is No.

# count of solved cases: 3
>  <residueSequence>
SAGEFKIDILPGDNVARITSPEGSFLAPFTATFTFDVPDIADPNKIKPKPVVFNLVIEMKLDDFFDLLSSAG [r5_234_TrMRF]

>  <className>
Yes

$$$$
>  <residueSequence>
SAGGSAPVTLETEFFGENGLLVRTEAVVDPATGEVTVRTETFPVITGPADNPDVVKKLLEEAGIDASAGGSA [r2_304_TrMRF]

>  <className>
No

$$$$
>  <residueSequence>
DDWVTLPVEIWIPVRNPDGKPLTPEQVKETANSIRNELARNHGIDVEVDVKVEPVGPNGYYRINATVTIRPS [r1_231_TrROS]

>  <className>
Yes

$$$$

Task: Is reported folding stability dG unfold greater than or equal to 4 kJ/mol here: SAGGSAGGSAGSNKVVTFVPRDPATGAPLGERPIPINSSSGSEIESIKKELPPEVVEIVESAGGSAGGSAGG [r17_339_JUSTAS]
Output: Yes

Task: Is reported folding stability dG unfold greater than or equal to 4 kJ/mol here: SAGGSAKPKIKINIFYPKDGQWYVMIQDPGGEEVMGPWDDIDKIIEAGIPADDVEIEWMPMPPGQFSAGGSA [r15_955_TrROS]
Output: Yes

Task: Is reported folding stability dG unfold greater than or equal to 4 kJ/mol here: SMTIKELLKAHPGQPVEDLAKRIMDEMNANFPNGMPIKINLEYDPGGIKVDVEMWNNDKPQTDEFTIRPDSA [r9_805_TrROS]
Output: No

Task: Is reported folding stability dG unfold greater than or equal to 4 kJ/mol here: SAGMKVTVSPASLVFDPATGRLLRPVLVTVEDTGGGGKTPAEEQAAAAEATRRALAAELAPRTGSALDLSAG [r5_333_JUSTAS]
Output: No

Task: Is reported folding stability dG unfold greater than or equal to 4 kJ/mol here: SAGGSAGGSAGAYSATPVEERRLPDGSTLVRERVTDPATGTPALREVLVTDEGVEERLLPSAGGSAGGSAGG [r11_991_JUSTAS]
Output: No

Task: Is reported folding stability dG unfold greater than or equal to 4 kJ/mol here: SAGGSAMTITVTLTFKSEEEALAAIRELAEALGLEIESVEIRYDPETEEVTVTATIRLPPPPPELLSAGGSA [r15_254_TrROS_Hall]
Output: Yes

The measurements presented in this section are drawn from the supplement of paper PMC12764529.
